System: SK-MEL-2 melanoma
Protocol Summary: NCI-60 one-dose screen, 48 h (100 = growth as untreated, 0 = no growth, -100 = all killed)
Condition Set: 10 µM unless noted
The panel holds about 83,000 compounds, 20% with a hit somewhere; the sample as a whole holds those more often.
Measured growth accompanies every entry in the list below.
Measure: growth (%)

1. Nc1nc(SCc2ccccc2)c2ncn(C3CCCC3)c2n1 | 94.6
2. COc1ccc(CN2C(=O)/C(=C\c3cc(OC)c(OC)c(OC)c3)c3cc(OC)ccc32)cc1 | -13.4
3. O=C(/C=C\c1ccc2ccccc2n1)c1cc(Cl)ccc1O | -9.71
4. COc1ccc(CCN2CC=Cn3c2nc2ccccc2c3=O)cc1 | 46.5
5. CC(C)[C@H]1COC(=O)N1[C@@H]1C(=O)N([C@@H](CCC(=O)N2CCN(C3CCCC3)CC2)C(=O)N[C@@H]2CCCc3ccccc32)[C@@H]1/C=C/c1cccc(Br)c1 | -7.94
6. CC(=O)OCC(=O)C1CCC=CC1OC(C)=O (stereo not given) | 88.3
7. O=C(Nc1nc(-c2ccccc2)cc(-c2ccc(Cl)cc2)n1)c1ccncc1 | 98.8
8. O=C(O)c1cccnc1Br | 99.6
9. Nc1cccc(NC(=O)C(=O)Nc2cccc(N)c2)c1 | 97.6
10. Cc1ccc(NC(=O)c2sc3nc4c(cc3c2N)C(=O)CCC4)cc1C | 37
11. O=C(O)C(O)C(O)C(=O)O.[NH-]C1CCCCC1[NH-].[Pt+2] (stereo not given) | 109
12. COc1cnc2c(c1)C(=O)c1c-2n(CCCN2CCCC2)c(=O)c2cc([N+](=O)[O-])ccc12 | 13.8
13. COc1ccc(N(Cc2cc(OC)c(OC)c(OC)c2)C2OC(=O)c3ccccc32)cc1 (stereo not given) | 21.5
14. COC(=O)[C@H](C(C)C)n1c(=O)c2cc(OC)c(OC)cc2c2cnc3[nH]ccc3c21 | 89.7
15. Cl/C(=N\Nc1ccccc1)c1ccccc1 | 96.6
16. O=C(CN1CCN(c2cc3c(cc2F)c(=O)c(C(=O)N/N=C/c2ccccc2)cn3C2CC2)CC1)N/N=C\c1ccccc1 | 86.1
17. CC(=O)/C(=C/c1cccc(Cl)c1)C(=O)c1ccccc1 | 94.9
18. O=C([C@@H](COCc1ccccc1)N1C(=O)[C@@H](N2C(=O)OC[C@@H]2c2ccccc2)[C@H]1/C=C/c1ccccc1)N1CCC(CCN2CCCCC2)CC1 | 71.7
19. O=C1/C(=C/c2ccc(Cl)c(Cl)c2)CN(C(=O)CCN2CCC(=NO)CC2)C/C1=C\c1ccc(Cl)c(Cl)c1 | -86.9
20. N#Cc1c2c(nc3n[nH]c(N)c13)CCCC2 | 109
21. Cn1c2ccccc2c2c3c(c4c5ccccc5[nH]c4c21)C(=O)N(N)C3=O | 99.7
22. COc1ccc(S(=O)(=O)NCCCNc2nccc(-c3c(-c4cccc(N)c4)nc4sccn34)n2)cc1 | 113
23. Cc1cccc(NC(=O)c2sc3nc4c(cc3c2N)C(=O)CCC4)c1 | 64.7
24. Clc1ccc(-c2nnc(COc3ccccc3Cl)o2)cc1 | 99.1
25. COc1cc(NCCCCN=C(N)NC(N)=NC(C)C)c2ncccc2c1 | 43.7
26. O=C(CNC1C2CC3CC(C2)CC1C3)Sc1nnc2sc3ccccc3n12 (stereo not given) | 108
27. COc1cc(C#N)cc(OC)c1OCCN(CCOc1c(OC)cc(C#N)cc1OC)S(=O)(=O)c1ccc(C)cc1 | 75
28. COc1ccc(/C=C/C(=O)c2ccc(NC(=O)c3cc4cc5ccccc5nc4s3)cc2)cc1OC | 103
29. Cc1cc(=O)oc2cc(Oc3nc(-c4cccs4)cn4c(-c5cccs5)cnc34)ccc12 | 69
30. Nc1nc(-c2ccc(F)cc2)cc(-c2cnn(-c3ccccc3)n2)n1 | 96
31. CN1CCN(Cc2ccc(NC(=O)c3[nH]ncc3Nc3ncnc4[nH]ccc34)cc2)CC1 | -12.3
32. CCCNc1nc(SC)nc(-c2cccc(N)c2)c1C#N | 111
33. O=C(Nc1ccc(CN2CCOCC2)cc1)c1[nH]ncc1Nc1ncnc2sccc12 | 2.93
34. NCCN1CCN(c2nccc(-c3ccc4ccccc4c3)n2)CC1 | 76.9
35. O=C(/C=C/c1ccc(Cl)cc1)c1ccc(O)c(CN2CCN(c3cc4c(cc3F)c(=O)c(C(=O)O)cn4C3CC3)CC2)c1 | 68.6
36. O=C(/C=C\c1cccc([N+](=O)[O-])c1)c1ccccc1 | 100
37. CCOC(=O)CC(C)=N | 111
38. COc1cccc2c1C(=O)c1c(O)c3c(c(O)c1C2=O)C[C@@](O)(/C(C)=N/NC(=O)c1ccc(Cl)cc1)C[C@@H]3OC1CC(N)C(O)C(C)O1 (stereo not given in full) | -81.1
39. Cc1cc(=O)oc2cc(Oc3nc(-c4ccc(Cl)cc4)cn4c(-c5ccc(Cl)cc5)cnc34)ccc12 | 106
40. CCN(CC)CC(O)c1cc(-c2ccc(Cl)cc2)nc2c(C)c(Cl)ccc12 (stereo not given) | -68.8
